Values compiled from patent US20140170239A1.

target: T1, biotinylated p53β peptide (human, also: biotinylated, site not given here); test: peptide-binding assay: peptide spots on membrane, biotinylated p53β peptide, streptavidin-HRP;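 also: Membrane-bound synthesized peptide spots exposed to the biotinylated p53 aggregation-prone peptide, bound material revealed via streptavidin-HRP and chemiluminescence, spot signal reflecting binding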
T1 construct: also called biotinylated p53-aggregating peptide
T1 peptide: ILTIITL
Where no end group is shown, it is not given here.
Endpoint: Binding intensity (normalized)
Numeric only. Scale: normalized

Here are 3 binders together with their reported answers.
Return reported Binding intensity (normalized); argument: GLTIPTL (spot-synthesized on membrane; also called position Nr 52) [AL2SA_HUMAN peptide GLTIPTL]
10.9

Now this one: ILKNITL (spot-synthesized on membrane; also called position Nr 46) [BPA1_HUMAN peptide ILKNITL]
12.1

Now this one: ILTKISL (spot-synthesized on membrane; also called position Nr 13) [HEAT1_HUMAN peptide ILTKISL]
8.65

Moving on to the next binder.
Return reported Binding intensity (normalized); argument: ILTKYTL (spot-synthesized on membrane; also called position Nr 37) [NOL11_HUMAN peptide ILTKYTL]
33.3
